- assay_target: UniProtKB P00352
- method_notes: Inhibition kinetics of ALDH-II, initial velocity method, formaldehyde as substrate
Quick list: pKi per entry.
pKi here: minus log base 10 of the concentration, concentration in moles per litre.

Hello, please tell me recorded pKi for this one: COc1cc(O)c2c(=O)c(-c3ccc(O)cc3)coc2c1 [Prunetin]
4.92

The record that follows has no pKi shown yet.
Hello, please tell me recorded pKi for this one: O=c1c(-c2ccc(O)cc2)coc2cc(O[C@@H]3O[C@H](CO)[C@@H](O)[C@H](O)[C@H]3O)ccc12 [Daidzin, 7-glucoside of daidzein]
4.70

---

- method_notes: physchem
- condition_details: water
Quick list: solubility per entry.
Please report the result as a number followed by the unit.

Use these answered entries as a reference point.
Hello, please tell me recorded solubility for this one: O=C(O)CCCCCOc1ccc2c(=O)c(-c3ccc(O)cc3)coc2c1 [Daidzein 7-(ω-carboxypentyl) ether, daidzein 7-(ω-carboxypentyl) ether]
26 mM

Hello, please tell me recorded solubility for this one: O=c1c(-c2ccc(O)cc2)coc2cc(O[C@@H]3O[C@H](CO)[C@@H](O)[C@H](O)[C@H]3O)ccc12 [Daidzin, 7-glucoside of daidzein]
0.2 mM

Hello, please tell me recorded solubility for this one: O=C(O)CCCCCCOc1ccc2c(=O)c(-c3ccc(O)cc3)coc2c1 [Daidzein 7-(ω-carboxyhexyl) ether, daidzein 7-(ω-carboxyhexyl) ether]
13 mM

The record that follows has no solubility shown yet.
Hello, please tell me recorded solubility for this one: O=C(O)CCCCCCCCCCOc1ccc2c(=O)c(-c3ccc(O)cc3)coc2c1 [Daidzein 7-(ω-carboxydecyl) ether, daidzein 7-(ω-carboxydecyl)ether]
9 mM

---

- method_notes: Plasma drug concentration versus time after a single 10 mg dose
- Type: in vivo
- condition_details: plasma, ip, golden hamster, read-out: maximal plasma concentration
Quick list: Cmax per entry.
Please report the result as a number followed by the unit.

Hello, please tell me recorded Cmax for this one: O=c1c(-c2ccc(O)cc2)coc2cc(O[C@@H]3O[C@H](CO)[C@@H](O)[C@H](O)[C@H]3O)ccc12 [Daidzin, 7-glucoside of daidzein]
6 µM

The record that follows has no Cmax shown yet.
Hello, please tell me recorded Cmax for this one: `O=C(O)CCCCCCOc1ccc2c(=O)c(-c3ccc(O)cc3)coc2c1`
4.5 µM

---

- assay_target: ALDH-I (Homo sapiens, UniProt P05091)
- Sequence (P05091 18-517): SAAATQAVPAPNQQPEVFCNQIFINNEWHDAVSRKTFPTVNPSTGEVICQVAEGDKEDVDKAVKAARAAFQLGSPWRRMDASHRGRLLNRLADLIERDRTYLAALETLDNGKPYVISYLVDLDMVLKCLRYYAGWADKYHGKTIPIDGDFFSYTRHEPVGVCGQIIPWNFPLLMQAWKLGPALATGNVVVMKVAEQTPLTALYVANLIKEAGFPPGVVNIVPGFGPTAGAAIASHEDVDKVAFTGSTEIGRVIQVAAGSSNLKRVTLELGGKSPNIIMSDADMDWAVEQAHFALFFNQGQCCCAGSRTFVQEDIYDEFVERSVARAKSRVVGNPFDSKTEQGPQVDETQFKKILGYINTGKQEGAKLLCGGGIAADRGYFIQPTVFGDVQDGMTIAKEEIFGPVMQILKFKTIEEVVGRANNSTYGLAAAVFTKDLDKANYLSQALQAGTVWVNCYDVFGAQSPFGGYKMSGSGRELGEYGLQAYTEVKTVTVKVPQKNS
- method_notes: ALDH-I inhibition by structurally related compounds, acetaldehyde as substrate
- Format: biochemical
- Set-up: A liver sample (50 g wet weight) with the usual Caucasian ALDH phenotype (both ALDH-I and ALDH-II present); from tissue; host or cells: human liver (autopsy), purified by CM-52, AMP-agarose and DEAE HPLC
- condition_details: 5 μM acetaldehyde, 1 mM NAD+, pH 9.5, 25° C.; read-out: IC50, ALDH-I
Quick list: IC50 per entry.
Could you give me the number in µM? Just the number is fine.

Use these answered entries as a reference point.
Hello, please tell me recorded IC50 for this one: `O=c1cc(-c2ccccc2)oc2ccccc12`
10

Hello, please tell me recorded IC50 for this one: CC1=C(c2ccccc2)C(=O)OC2CC(Cl)CCC12 (stereo not shown)
1

Hello, please tell me recorded IC50 for this one: `CC(C)c1ccc(-c2coc3ccccc3c2=O)cc1`
5

Hello, please tell me recorded IC50 for this one: O=c1c(-c2ccccc2)c(-c2ccccc2)oc2cc(O)ccc12 [3-Phenyl-7-hydroxyflavone]
10

Hello, please tell me recorded IC50 for this one: `O=c1c(-c2ccc(O)cc2)coc2cc(O[C@@H]3O[C@H](CO)[C@@H](O)[C@H](O)[C@H]3O)cc(O)c12`
2

Hello, please tell me recorded IC50 for this one: `CC(=O)Oc1ccc2c(=O)c(Cc3ccccc3)c(C)oc2c1OC(C)=O`
10

Continuing:
Hello, please tell me recorded IC50 for this one: `COc1ccc(-c2cc(=O)c3c(O)cc(O)cc3o2)cc1`
5

---

- assay_target: ALDH-II (Homo sapiens)
- Sequence (P00352 whole entry): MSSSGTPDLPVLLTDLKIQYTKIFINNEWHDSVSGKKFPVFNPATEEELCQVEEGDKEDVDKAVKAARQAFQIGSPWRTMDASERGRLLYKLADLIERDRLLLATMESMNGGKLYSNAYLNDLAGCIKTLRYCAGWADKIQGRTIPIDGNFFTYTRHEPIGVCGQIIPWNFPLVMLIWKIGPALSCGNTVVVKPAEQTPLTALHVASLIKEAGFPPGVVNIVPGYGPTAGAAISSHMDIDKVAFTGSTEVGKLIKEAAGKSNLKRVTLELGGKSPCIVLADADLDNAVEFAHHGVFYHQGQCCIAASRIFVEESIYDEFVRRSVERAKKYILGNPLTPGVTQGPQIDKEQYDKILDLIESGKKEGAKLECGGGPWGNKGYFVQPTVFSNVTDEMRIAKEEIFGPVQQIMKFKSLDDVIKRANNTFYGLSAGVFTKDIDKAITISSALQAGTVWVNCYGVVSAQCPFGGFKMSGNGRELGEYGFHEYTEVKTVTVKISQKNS
- method_notes: ALDH-II inhibition by structurally related compounds, acetaldehyde as substrate
- Format: biochemical
- Set-up: A liver sample (50 g wet weight) with the usual Caucasian ALDH phenotype (both ALDH-I and ALDH-II present); from tissue; host or cells: human liver (autopsy), purified by CM-52, AMP-agarose and DEAE HPLC
Quick list: IC50 per entry.

Use these answered entries as a reference point.
Hello, please tell me recorded IC50 for this one: O=c1c(-c2ccc(O)cc2)coc2cc(O[C@@H]3O[C@H](CO)[C@@H](O)[C@H](O)[C@H]3O)ccc12 [Daidzin, 7-glucoside of daidzein]
20 µM

Hello, please tell me recorded IC50 for this one: `O=c1c(-c2ccc(O)cc2)coc2cc(O[C@@H]3O[C@H](CO)[C@@H](O)[C@H](O)[C@H]3O)cc(O)c12`
> 20 µM

The record that follows has no IC50 shown yet.
Hello, please tell me recorded IC50 for this one: `COc1cc(O)c2c(=O)c(-c3ccc(O)cc3)coc2c1`
12 µM

---

- assay_target: ALDH-I (Homo sapiens)
- method_notes: ALDH-I inhibition by structurally related compounds, acetaldehyde as substrate
- Format: biochemical
- Set-up: A liver sample (50 g wet weight) with the usual Caucasian ALDH phenotype (both ALDH-I and ALDH-II present); from tissue; host or cells: human liver (autopsy), purified by CM-52, AMP-agarose and DEAE HPLC
outcome_measure: IC50 (nM)
Could you give me the number in nM? Just the number is fine.

Hello, please tell me recorded IC50 for this one: `COc1cc(O)c2c(=O)c(-c3ccc(O)cc3)coc2c1`
1000

---

Quick list: log10 of IC50 per entry.
- assay_target: UniProtKB P00352
- method_notes: ALDH-II inhibition by structurally related compounds, acetaldehyde as substrate
- Type: biochemical
- Set-up: A liver sample (50 g wet weight) with the usual Caucasian ALDH phenotype (both ALDH-I and ALDH-II present); from tissue; host or cells: human liver (autopsy), purified by CM-52, AMP-agarose and DEAE HPLC
- condition_details: 200 μM acetaldehyde, 1 mM NAD+, pH 9.5, 25° C.; read-out: IC50, ALDH-II
- Description: *ALDH activities were assayed at 25° C. in 0.1 M sodium pyrophosphate buffer pH 9.5 containins 0.15 M KCl, 1 mM NAD^+, various concentrations of inhibitors and 5 and 200 μM acetaldehyde for ALDH-I and ALDH-II, respectively. […] where Vo is the enzyme reaction rate measured in the absence of inhibitor, and where Vi is the enzyme reaction rate measured in the presence of inhibitor. […]
A difference of one corresponds to tenfold IC50; all values are log10 with IC50 in nM.

Hello, please tell me recorded log10 of IC50 for this one: CC1=C(c2ccccc2)C(=O)OC2CC(Cl)CCC12 (stereo not drawn)
3.00

Hello, please tell me recorded log10 of IC50 for this one: CC(C)c1ccc(-c2coc3ccccc3c2=O)cc1 [4'-Isopropylisoflavone]
3.18

Hello, please tell me recorded log10 of IC50 for this one: CC(=O)Oc1ccc2c(=O)c(Cc3ccccc3)c(C)oc2c1OC(C)=O [3-Benzyl-7,8-diacetoxy-2-methylchromone]
3.48

Hello, please tell me recorded log10 of IC50 for this one: COc1ccc(-c2cc(=O)c3c(O)cc(O)cc3o2)cc1 [Acacetin]
3.70

Hello, please tell me recorded log10 of IC50 for this one: O=c1cc(-c2ccccc2)c2ccc(O)cc2o1 [7-Hydroxy-4-phenylcoumarin]
2.48

Hello, please tell me recorded log10 of IC50 for this one: O=c1c(-c2ccccc2)c(-c2ccccc2)oc2cc(O)ccc12 [3-Phenyl-7-hydroxyflavone]
3.30

Hello, please tell me recorded log10 of IC50 for this one: COc1ccc(-c2coc3cc(O[C@@H]4O[C@H](CO)[C@@H](O)[C@H](O)[C@H]4O)ccc3c2=O)cc1 [Ononin]
4.30

Hello, please tell me recorded log10 of IC50 for this one: Cc1ccc2c(c1)OC(=O)CC2c1ccccc1 (stereo not drawn) [7-Methyl-4-phenyl-3,4-dihydrocoumarin]
2.70

The record that follows has no log10 of IC50 shown yet.
Hello, please tell me recorded log10 of IC50 for this one: O=c1cc(-c2ccccc2)oc2ccccc12 [Flavone]
3.70

Origin of measurements: patent US6255497A
